Measured Genotoxicity test, Without S9 rat liver extract, Bscl 2, 10 accompanies every entry in the list below.
system: Bscl2-GFP; assay: ToxTracker genotoxicity assay, Bscl2-GFP reporter induction; settings: GFP induction vs vehicle at 10% cytotoxicity; 24 h exposure, no S9
parameter: Genotoxicity test, Without S9 rat liver extract, Bscl 2, 10 (fold)

>>> numeric_result("CC(CN1CC1C)OC(=O)NCCCCCCNC(=O)OC(C)CN1CC1C (stereo not shown) [Comp. Ex. 6, reference compound]")
1.4
>>> numeric_result("CCCCOCC(CN1CC1C)OC(=O)NC1CCC(CC2CCC(NC(=O)OC(COCCCC)CN3CC3C)CC2)CC1 (stereo not shown)")
1.0
>>> numeric_result("Cc1ccccc1OCC(CN1CC1C)OC(=O)NCCCCCCn1c(=O)n(CCCCCCNC(=O)OC(COc2ccccc2C)CN2CC2C)c(=O)n(CCCCCCNC(=O)OC(COc2ccccc2C)CN2CC2C)c1=O (stereo not shown)")
1.1
>>> numeric_result("CCCCC(CC)COCC(CN1CC1C)OC(=O)NCCCCCCn1c(=O)n(CCCCCCNC(=O)OC(COCC(CC)CCCC)CN2CC2C)c(=O)n(CCCCCCNC(=O)OC(COCC(CC)CCCC)CN2CC2C)c1=O (stereo not shown)")
1.0
>>> numeric_result("CCCCCCCCCC(=O)OCC(CN1CC1C)OC(=O)NCCCCCCn1c(=O)n(CCCCCCNC(=O)OC(COC(=O)CCCCCCCCC)CN2CC2C)c(=O)n(CCCCCCNC(=O)OC(COC(=O)CCCCCCCCC)CN2CC2C)c1=O (stereo not shown)")
1.1
>>> numeric_result("CCCCCCCCCC(=O)OCC(CN1CC1C)OC(=O)NC1CCC(CC2CCC(NC(=O)OC(COC(=O)CCCCCCCCC)CN3CC3C)CC2)CC1 (stereo not shown)")
1.1
>>> numeric_result("CC(CN1CC1C)OC(=O)NC1CCC(CC2CCC(NC(=O)OC(C)CN3CC3C)CC2)CC1 (stereo not shown) [Comp. Ex. 9, reference compound]")
1.2

###

Measured Genotoxicity test, Without S9 rat liver extract, Bscl 2, 25 accompanies every entry in the list below.
test system: Bscl2-GFP; test: ToxTracker genotoxicity assay, Bscl2-GFP reporter induction; conditions: GFP induction vs vehicle at 25% cytotoxicity; 24 h exposure, no S9
parameter: Genotoxicity test, Without S9 rat liver extract, Bscl 2, 25

>>> result("COCCOCCOCCOCCOCCOCCOCCOCCOCCOCCOCCOCCOCCOCC(CN1CC1C)OC(=O)NCCCCCCn1c(=O)n(CCCCCCNC(=O)OC(COCCOCCOCCOCCOCCOCCOCCOCCOCCOCCOCCOCCOCCOC)CN2CC2C)c(=O)n(CCCCCCNC(=O)OC(COCCOCCOCCOCCOCCOCCOCCOCCOCCOCCOCCOCCOCCOC)CN2CC2C)c1=O (stereo not drawn) [Ex. 29]")
"1.4 fold"
>>> result("Cc1ccccc1OCC(CN1CC1C)OC(=O)NCCCCCCn1c(=O)n(CCCCCCNC(=O)OC(COc2ccccc2C)CN2CC2C)c(=O)n(CCCCCCNC(=O)OC(COc2ccccc2C)CN2CC2C)c1=O (stereo not drawn) [Ex. 21]")
"1.2 fold"
>>> result("CCCCC(CC)COCC(CN1CC1C)OC(=O)NCCCCCCn1c(=O)n(CCCCCCNC(=O)OC(COCC(CC)CCCC)CN2CC2C)c(=O)n(CCCCCCNC(=O)OC(COCC(CC)CCCC)CN2CC2C)c1=O (stereo not drawn) [Ex. 20]")
"1.0 fold"
>>> result("CCCCOCC(CN1CC1C)OC(=O)Nc1ccc(C)c(NC(=O)OC(COCCCC)CN2CC2C)c1 (stereo not drawn) [Comp. Ex. 11, reference compound]")
"1.6 fold"
>>> result("CC(CN1CC1C)OC(=O)NC1CCC(CC2CCC(NC(=O)OC(C)CN3CC3C)CC2)CC1 (stereo not drawn) [Comp. Ex. 9, reference compound]")
"1.6 fold"
>>> result("CCCCCCCCCC(=O)OCC(CN1CC1C)OC(=O)NCCCCCCn1c(=O)n(CCCCCCNC(=O)OC(COC(=O)CCCCCCCCC)CN2CC2C)c(=O)n(CCCCCCNC(=O)OC(COC(=O)CCCCCCCCC)CN2CC2C)c1=O (stereo not drawn) [Ex. 24]")
"1.2 fold"
>>> result("CC(CN1CC1C)OC(=O)NCCCCCCNC(=O)OC(C)CN1CC1C (stereo not drawn) [Comp. Ex. 6, reference compound]")
"2.0 fold"
>>> result("CC1CN1C1CCCCC1OC(=O)NCCCCCCn1c(=O)n(CCCCCCNC(=O)OC2CCCCC2N2CC2C)c(=O)n(CCCCCCNC(=O)OC2CCCCC2N2CC2C)c1=O (stereo not drawn) [Ex. 19]")
"1.3 fold"
>>> result("C=CCOCC(CN1CC1C)OC(=O)NCCCCCCn1c(=O)n(CCCCCCNC(=O)OC(COCC=C)CN2CC2C)c(=O)n(CCCCCCNC(=O)OC(COCC=C)CN2CC2C)c1=O (stereo not drawn) [Ex. 9]")
"1.2 fold"
>>> result("CCCCOCC(CN1CC1C)OC(=O)NCCCCCC/N=c1\\oc(=O)n(CCCCCCNC(=O)OC(COCCCC)CN2CC2C)c(=O)n1CCCCCCNC(=O)OC(COCCCC)CN1CC1C (stereo not drawn) [Ex. 15]")
"1.1 fold"
>>> result("CCCCOCC(CN1CC1C)OC(=O)NC(C)(C)c1cccc(C(C)(C)NC(=O)OC(COCCCC)CN2CC2C)c1 (stereo not drawn) [Ex. 11]")
"1.3 fold"
>>> result("CCCCOCC(CN1CC1C)OC(=O)NCCCCCCNC(=O)OC(COCCCC)CN1CC1C (stereo not drawn) [Comp. Ex. 10, reference compound]")
"1.5 fold"
>>> result("CC(CN1CC1C)OC(=O)NC(C)(C)c1cccc(C(C)(C)NC(=O)OC(C)CN2CC2C)c1 (stereo not drawn) [Comp. Ex. 8, reference compound]")
"1.7 fold"
>>> result("CCCCOCC(CN1CC1C)OC(=O)NCCCCCCn1c(=O)n(CCCCCCNC(=O)OC(COCCCC)CN2CC2C)c(=O)n(CCCCCCNC(=O)OC(COCCCC)CN2CC2C)c1=O (stereo not drawn) [Ex. 14]")
"1.1 fold"
>>> result("CCCCCCCCCC(=O)OCC(CN1CC1C)OC(=O)NC1CCC(CC2CCC(NC(=O)OC(COC(=O)CCCCCCCCC)CN3CC3C)CC2)CC1 (stereo not drawn) [Ex. 23]")
"1.2 fold"
>>> result("CCCCOCC(CN1CC1C)OC(=O)NCCCCCCN1C(=O)N(CCCCCCNC(=O)OC(COCCCC)CN2CC2C)C1=O (stereo not drawn) [Ex. 13]")
"1.3 fold"
>>> result("CC(CN1CC1C)OC(=O)NCC1(C)CC(NC(=O)OC(C)CN2CC2C)CC(C)(C)C1 (stereo not drawn) [Comp. Ex. 7, reference compound]")
"1.6 fold"
>>> result("CCCCOCC(CN1CC1C)OC(=O)NC1CCC(CC2CCC(NC(=O)OC(COCCCC)CN3CC3C)CC2)CC1 (stereo not drawn) [Ex. 12]")
"1.0 fold"
>>> result("CCC(CN1CC1C)OC(=O)NCCCCCCn1c(=O)n(CCCCCCNC(=O)OC(CC)CN2CC2C)c(=O)n(CCCCCCNC(=O)OC(CC)CN2CC2C)c1=O (stereo not drawn) [Ex. 7]")
"1.1 fold"
>>> result("CCCCCCCCCC(=O)OCC(CN1CC1C)OC(=O)NC(C)(C)c1cccc(C(C)(C)NC(=O)OC(COC(=O)CCCCCCCCC)CN2CC2C)c1 (stereo not drawn) [Ex. 22]")
"1.0 fold"
>>> result("CC(CN1CC1C)OC(=O)NCCCCCC/N=c1\\oc(=O)n(CCCCCCNC(=O)OC(C)CN2CC2C)c(=O)n1CCCCCCNC(=O)OC(C)CN1CC1C (stereo not drawn) [Ex. 2]")
"1.1 fold"

###

tested on: Rtkn-GFP; assay: ToxTracker genotoxicity assay, Rtkn-GFP reporter induction; settings: GFP induction vs vehicle at 10% cytotoxicity; 24 h exposure, no S9
Measured Genotoxicity test, Without S9 rat liver extract, Rtkn, 10 accompanies every entry in the list below.
parameter: Genotoxicity test, Without S9 rat liver extract, Rtkn, 10 (fold)

>>> numeric_result("CC1CN1C1CCCCC1OC(=O)NCCCCCCn1c(=O)n(CCCCCCNC(=O)OC2CCCCC2N2CC2C)c(=O)n(CCCCCCNC(=O)OC2CCCCC2N2CC2C)c1=O (stereo not drawn)")
1.2
>>> numeric_result("CCCCOCC(CN1CC1C)OC(=O)NCCCCCCn1c(=O)n(CCCCCCNC(=O)OC(COCCCC)CN2CC2C)c(=O)n(CCCCCCNC(=O)OC(COCCCC)CN2CC2C)c1=O (stereo not drawn)")
0.8
>>> numeric_result("Cc1ccccc1OCC(CN1CC1C)OC(=O)NCCCCCCn1c(=O)n(CCCCCCNC(=O)OC(COc2ccccc2C)CN2CC2C)c(=O)n(CCCCCCNC(=O)OC(COc2ccccc2C)CN2CC2C)c1=O (stereo not drawn)")
1.2
>>> numeric_result("CCCCOCC(CN1CC1C)OC(=O)NCCCCCCN1C(=O)N(CCCCCCNC(=O)OC(COCCCC)CN2CC2C)C1=O (stereo not drawn)")
1.1
>>> numeric_result("CCCCOCC(CN1CC1C)OC(=O)NC1CCC(CC2CCC(NC(=O)OC(COCCCC)CN3CC3C)CC2)CC1 (stereo not drawn)")
1.0
>>> numeric_result("CC(OC(=O)NCCCCCCn1c(=O)n(CCCCCCNC(=O)OC(C)C(C)N2CC2C)c(=O)n(CCCCCCNC(=O)OC(C)C(C)N2CC2C)c1=O)C(C)N1CC1C (stereo not drawn)")
1.2
>>> numeric_result("CC(CN1CC1C)OC(=O)NCC1(C)CC(NC(=O)OC(C)CN2CC2C)CC(C)(C)C1 (stereo not drawn) [Comp. Ex. 7, reference compound]")
1.6
>>> numeric_result("CCCCOCC(CN1CC1C)OC(=O)NC(C)(C)c1cccc(C(C)(C)NC(=O)OC(COCCCC)CN2CC2C)c1 (stereo not drawn)")
1.1
>>> numeric_result("CCCCCCCCCC(=O)OCC(CN1CC1C)OC(=O)NC1CCC(CC2CCC(NC(=O)OC(COC(=O)CCCCCCCCC)CN3CC3C)CC2)CC1 (stereo not drawn)")
1.1
>>> numeric_result("C=CCOCC(CN1CC1C)OC(=O)NCCCCCCn1c(=O)n(CCCCCCNC(=O)OC(COCC=C)CN2CC2C)c(=O)n(CCCCCCNC(=O)OC(COCC=C)CN2CC2C)c1=O (stereo not drawn)")
1.0
>>> numeric_result("CCCCOCC(CN1CC1C)OC(=O)Nc1ccc(C)c(NC(=O)OC(COCCCC)CN2CC2C)c1 (stereo not drawn) [Comp. Ex. 11, reference compound]")
1.3
>>> numeric_result("CCCCOCC(CN1CC1C)OC(=O)NCCCCCC/N=c1\\oc(=O)n(CCCCCCNC(=O)OC(COCCCC)CN2CC2C)c(=O)n1CCCCCCNC(=O)OC(COCCCC)CN1CC1C (stereo not drawn)")
1.1
